Data origin, for the record: ChEMBL document CHEMBL3797022

Target: Glycogen synthase kinase-3 beta (Homo sapiens)
Sequence (P49841 whole entry): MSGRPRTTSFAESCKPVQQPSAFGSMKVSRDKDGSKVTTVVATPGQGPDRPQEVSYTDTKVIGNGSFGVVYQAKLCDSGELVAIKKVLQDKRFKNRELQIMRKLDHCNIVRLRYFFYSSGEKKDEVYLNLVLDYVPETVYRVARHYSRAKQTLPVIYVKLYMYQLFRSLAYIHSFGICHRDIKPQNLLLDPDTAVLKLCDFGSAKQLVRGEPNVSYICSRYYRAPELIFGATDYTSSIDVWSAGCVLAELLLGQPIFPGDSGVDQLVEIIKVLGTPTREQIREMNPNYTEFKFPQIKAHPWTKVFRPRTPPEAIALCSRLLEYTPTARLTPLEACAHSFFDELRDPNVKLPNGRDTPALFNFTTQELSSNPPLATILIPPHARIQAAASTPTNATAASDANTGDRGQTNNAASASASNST
Experiment: Inhibition of human recombinant GSK3beta expressed in Escherichia coli using GS-1 as substrate incubated for 20 mins by gamma[32P]ATP-based scintillation counting analysis
List of IC50 values.
Respond numerically; units are µM and should not be typed.

CCCCCCCCCCCC(=O)NNC(=O)c1c(O)c2ccccc2n(CC)c1=O
2.8

Lab note: next molecule to report on.
For the molecule COc1ccc(CNC(=O)Nc2nc(C)c(C(C)=O)s2)cc1 , the measured IC50 on Glycogen synthase kinase-3 beta (Homo sapiens) was 0.6
